Tested on: UACC-257 melanoma
procedure-details: NCI tumour cell line growth inhibition, 48 h
reported-metric: TGI

| compound | study-system | value-observed |
| --- | --- | --- |
| COc1cc(CNc2nc3ccc(C(F)(F)F)cc3nc2-c2ccccc2)cc(OC)c1OC | UACC-257 melanoma | > 100 µM |
| O=S1(=O)c2cnccc2NC(=NCc2ccccc2)N1c1ccccc1 | UACC-257 melanoma | > 100 µM |
| COc1ccc(C2Oc3c(c(O)cc4c3[C@H](c3ccc(O)cc3O)[C@H](O)C(c3ccc(O)c(O)c3)O4)C[C@@H]2O)cc1O (some centres not stated) | UACC-257 melanoma | > 100 µM |
| O=C1C=CC(=O)C(CNc2ccc(C(=O)OCc3ccccc3)cc2)=C1 | UACC-257 melanoma | 25.2 µM |
| CC(C)(C)OC(=O)NC1CCCC1=O (configuration not stated) | UACC-257 melanoma | > 100 µM |
| CC(C)=CCC[C@@H](C)C1=C(O)C(N)=C(C)C(=O)C1=O | UACC-257 melanoma | > 100 µM |

*Q* What does the record list as TGI for CC(=Nc1ccc(S(N)(=O)=O)cc1)c1c(O)[nH]c2ccccc12 ?
*A* > 25 µM
